study-target: fungal (fACC2) ACC2
conditions-used: read-out: fACC2 IC50; fungal ACC2, ADP-Glo
Catalogue of IC50 values

> print(dat)
                                   molecule     observed
1  Cc1c(-n2cccn2)sc2c1c(=O)n(C(C)(C)C(=O)N1CCCC1)c(=O)n2C[C@H](OC1CCOCC1)c1cc(F)ccc1OCCO [Compound I-51]  0.6 to 3 nM

Return reported IC50; argument: COCCO[C@@H](Cn1c(=O)n(C(C)(C)C(=O)N2CCCC2)c(=O)c2c(C)c(-n3cccn3)sc21)c1cc(F)ccc1OC [Compound I-44] 3 to 10 nM

What value of measured IC50 is listed for COc1ccccc1[C@H](Cn1c(=O)n(C(C)(C)C(=O)O)c(=O)c2c(C)c(-n3cccn3)sc21)O[C@H]1CC[C@@H](O)CC1 [Compound I-72] ? 0.6 to 3 nM

* * *

Test system: Fusarium virguliforme (Fv)
test-name: Growth inhibition assay of fungal pathogens
Format: cell-based
conditions-used: 48 h, Table 4b, 48 hours, read-out: Concentration at 90% Inhibition Fv
metric: IC90 (µg/mL)
Form entry: value (µg/mL) — number only.

Before answering, review these 3 worked examples.
> print(dat)
                               smiles.entry  value.unit  observed
1  COc1ccc(F)cc1[C@H](Cn1c(=O)n(C(C)(C)C(=O)N2CCCC2)c(=O)c2c(C)c(-n3cccn3)sc21)OC1CCC(=O)CC1       µg/mL         2
2  COc1ccc(F)cc1[C@H](Cn1c(=O)n(C(C)(C)C(=O)NC(C)C)c(=O)c2c(C)c(-n3cccn3)sc21)O[C@H]1CC[C@@H](O)CC1       µg/mL         2
3  COc1ccccc1[C@H](Cn1c(=O)n(C(C)(C)C(=O)N2CCCC2)c(=O)c2c(C)c(-n3cccn3)sc21)OC(C)C       µg/mL       0.4

// moving on: another record for IC90
// query IC90 value for entry COc1ccccc1[C@H](Cn1c(=O)n(C(C)(C)C(=O)N2CCCC2)c(=O)c2c(C)c(-n3cccn3)sc21)OC1CCOCC1 10

* * *

study-target: fungal (fACC2) ACC2 (UniProt Q00955)
Sequence (Q00955 whole entry): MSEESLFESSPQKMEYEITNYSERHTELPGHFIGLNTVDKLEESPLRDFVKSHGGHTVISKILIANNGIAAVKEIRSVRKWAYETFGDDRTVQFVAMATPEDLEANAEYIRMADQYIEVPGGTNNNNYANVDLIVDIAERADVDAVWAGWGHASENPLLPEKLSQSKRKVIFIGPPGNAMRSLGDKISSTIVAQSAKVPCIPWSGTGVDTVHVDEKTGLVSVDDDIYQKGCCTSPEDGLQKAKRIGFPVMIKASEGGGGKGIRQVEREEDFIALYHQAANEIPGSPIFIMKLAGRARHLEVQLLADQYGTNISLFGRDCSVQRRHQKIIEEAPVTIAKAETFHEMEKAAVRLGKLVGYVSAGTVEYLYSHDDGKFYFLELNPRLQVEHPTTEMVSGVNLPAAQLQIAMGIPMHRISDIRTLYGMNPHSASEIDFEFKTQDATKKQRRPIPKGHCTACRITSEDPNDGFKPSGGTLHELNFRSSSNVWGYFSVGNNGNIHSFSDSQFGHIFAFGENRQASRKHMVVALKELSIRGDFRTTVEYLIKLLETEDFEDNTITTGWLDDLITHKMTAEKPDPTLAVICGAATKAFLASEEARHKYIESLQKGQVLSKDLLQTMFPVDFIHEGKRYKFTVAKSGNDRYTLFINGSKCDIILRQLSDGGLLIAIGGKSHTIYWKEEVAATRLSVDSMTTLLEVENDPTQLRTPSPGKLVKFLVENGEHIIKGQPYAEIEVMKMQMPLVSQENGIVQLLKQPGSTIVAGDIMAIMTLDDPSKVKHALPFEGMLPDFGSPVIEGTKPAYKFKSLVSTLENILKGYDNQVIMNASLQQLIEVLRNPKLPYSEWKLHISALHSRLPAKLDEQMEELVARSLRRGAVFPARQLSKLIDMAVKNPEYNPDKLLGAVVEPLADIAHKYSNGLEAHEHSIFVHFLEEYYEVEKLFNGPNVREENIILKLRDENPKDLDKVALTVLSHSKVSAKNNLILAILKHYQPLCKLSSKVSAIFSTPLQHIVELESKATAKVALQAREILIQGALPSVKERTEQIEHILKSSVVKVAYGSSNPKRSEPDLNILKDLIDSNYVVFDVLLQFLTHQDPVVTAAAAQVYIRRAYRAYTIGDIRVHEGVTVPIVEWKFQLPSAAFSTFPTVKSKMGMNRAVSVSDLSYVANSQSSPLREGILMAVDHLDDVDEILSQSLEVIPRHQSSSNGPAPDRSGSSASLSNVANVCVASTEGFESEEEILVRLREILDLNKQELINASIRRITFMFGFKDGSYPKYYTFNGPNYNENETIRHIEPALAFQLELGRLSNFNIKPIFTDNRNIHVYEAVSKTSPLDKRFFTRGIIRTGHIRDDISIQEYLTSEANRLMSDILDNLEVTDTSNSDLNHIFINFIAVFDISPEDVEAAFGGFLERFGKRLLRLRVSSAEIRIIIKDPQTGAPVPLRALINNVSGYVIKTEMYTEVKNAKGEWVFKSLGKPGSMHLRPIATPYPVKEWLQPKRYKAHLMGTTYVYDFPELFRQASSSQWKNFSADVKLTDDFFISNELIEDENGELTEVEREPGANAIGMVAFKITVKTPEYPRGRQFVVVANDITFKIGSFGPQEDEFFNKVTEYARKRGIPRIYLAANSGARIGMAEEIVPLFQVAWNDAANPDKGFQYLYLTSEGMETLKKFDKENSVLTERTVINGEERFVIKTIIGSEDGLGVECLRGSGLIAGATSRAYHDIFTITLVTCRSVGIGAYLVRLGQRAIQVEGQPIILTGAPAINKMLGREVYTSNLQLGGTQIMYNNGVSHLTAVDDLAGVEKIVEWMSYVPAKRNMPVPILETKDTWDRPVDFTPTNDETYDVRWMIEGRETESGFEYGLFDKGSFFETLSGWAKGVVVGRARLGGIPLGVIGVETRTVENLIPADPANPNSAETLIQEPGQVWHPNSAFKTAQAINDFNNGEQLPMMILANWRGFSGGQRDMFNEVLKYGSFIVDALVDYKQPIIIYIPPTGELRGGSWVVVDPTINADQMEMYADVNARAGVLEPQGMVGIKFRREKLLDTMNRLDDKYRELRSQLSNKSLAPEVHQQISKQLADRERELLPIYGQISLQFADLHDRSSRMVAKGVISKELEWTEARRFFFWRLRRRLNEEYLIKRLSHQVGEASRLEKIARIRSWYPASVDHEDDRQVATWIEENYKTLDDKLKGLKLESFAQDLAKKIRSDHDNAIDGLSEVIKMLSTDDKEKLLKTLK
metric: IC50

In the examples that follow, each entry is paired with its recorded IC50.
> print(dat)
                                   compound  metric     observed
1  Cc1c(-n2cccn2)sc2c1c(=O)n(C(C)(C)C(=O)NC(C)C)c(=O)n2C[C@H](OC1CCOCC1)c1cc(F)ccc1OCC1COC1 [Compound I-50]    IC50  0.6 to 3 nM
2  COCCO[C@@H](Cn1c(=O)n(C(C)(C)C(=O)NC(C)C)c(=O)c2c(C)c(-n3cccn3)sc21)c1cc(F)ccc1OC [Compound I-43]    IC50  0.6 to 3 nM
3  COCCO[C@@H](Cn1c(=O)n(C(C)C(N)=O)c(=O)c2c(C)c(-n3cccn3)sc21)c1cc(F)ccc1OC (stereo partly drawn) [Compound I-56]    IC50  10 to 40 nM
4  COc1ccc(F)cc1[C@H](Cn1c(=O)n(C(C)C(=O)NC(C)C)c(=O)c2c(C)c(-n3cccn3)sc21)OC(C)C (stereo partly drawn) [Compound I-29]    IC50  0.6 to 3 nM
5  COc1ccccc1[C@H](Cn1c(=O)n(C(C)(C)C(=O)O)c(=O)c2c(C)c(-n3cccn3)sc21)OC1CCOCC1 [Compound I-71]    IC50  0.6 to 3 nM
6  COCCO[C@@H](Cn1c(=O)n([C@@H](C)C(=O)NC(C)C)c(=O)c2c(C)c(-n3cccn3)sc21)c1cc(F)ccc1OC [Compound I-73]    IC50  0.6 to 3 nM

I am curious: what IC50 value has been reported for COc1ccc(F)cc1[C@H](Cn1c(=O)n(C(C)(C)C(=O)N2CCCCC2)c(=O)c2c(C)c(-n3cccn3)sc21)OC(C)C [Compound I-2] ? 0.6 to 3 nM

Quick one: IC50 of Cc1c(-n2cccn2)sc2c1c(=O)n(C(C)(C)C(=O)NC(C)C)c(=O)n2C[C@H](OC1CCOCC1)c1cc(F)ccc1OCCO [Compound I-48] ? 0.6 to 3 nM

Reported IC50, compound COc1ccc(F)cc1[C@H](Cn1c(=O)n([C@@H](C)C(=O)N2CCCC2)c(=O)c2c(C)c(-n3cccn3)sc21)OC(C)C [Compound I-31] : ____ 0.6 to 3 nM

Which measured IC50 value corresponds to COc1ccc(F)cc1[C@H](Cn1c(=O)n(C(C)(C)C(=O)N2CCCC2)c(=O)c2c(C)c(-n3cccn3)sc21)OCCO [Compound I-36] ? 0.6 to 3 nM

So what's the measured IC50 for this one? COc1ccc(F)cc1[C@H](Cn1c(=O)n(C(C)C(=O)O)c(=O)c2c(C)c(-n3cccn3)sc21)OCC(C)=O (stereo partly drawn) [Compound I-65] 3 to 10 nM

I have this compound here, COCCO[C@@H](Cn1c(=O)n([C@H](C)C(=O)NC(C)C)c(=O)c2c(C)c(-n3cccn3)sc21)c1cc(F)ccc1OC [Compound I-74] , and I need its recorded IC50. 10 to 40 nM

* * *

System: Botrtyis cinerea (Bc)
test-name: Growth inhibition assay of fungal pathogens
Format: cell-based
conditions-used: 48 h, Table 4b, read-out: Concentration at 90% Inhibition Bc
metric: IC90 (µg/mL)
Your answer should be a plain number; it is taken to be in µg/mL.

Below are worked cases with known answers.
> print(dat)
                               smiles.entry  value.unit  observed
1  COc1ccc(F)cc1[C@H](Cn1c(=O)n([C@@H](C)C(=O)N2CCCC2)c(=O)c2c(C)c(-n3cccn3)sc21)OC(C)C       µg/mL       0.4
2  COc1ccc(F)cc1[C@H](Cn1c(=O)n(C(C)(C)C(=O)N2CCCC2)c(=O)c2c(C)c(-n3cccn3)sc21)OC[C@@H](C)O       µg/mL         2
3  COc1ccc(F)cc1[C@H](Cn1c(=O)n(C(C)(C)C(=O)N2CCCCC2)c(=O)c2c(C)c(-n3cccn3)sc21)OC(C)C       µg/mL       0.4
4  COc1ccc(F)cc1[C@H](Cn1c(=O)n(C(C)(C)C(=O)N2CCCCC2)c(=O)c2c(C)c(-n3cccn3)sc21)OC1CCOCC1       µg/mL         2
5  COc1ccccc1[C@H](Cn1c(=O)n(C(C)(C)C(=O)NC(C)C)c(=O)c2c(C)c(-n3cccn3)sc21)OCC(C)C       µg/mL         2

What value of measured IC90 is listed for COc1ccc(F)cc1[C@H](Cn1c(=O)n(C(C)(C)C(=O)N2CCOCC2)c(=O)c2c(C)c(-n3cccn3)sc21)OC(C)C ? 10

IC90 for COc1ccccc1[C@H](Cn1c(=O)n(C(C)(C)C(=O)N2CCCCC2)c(=O)c2c(C)c(-n3cccn3)sc21)OC1CCOCC1 ? 2

I'd like to know its IC90. The compound in question is COc1ccc(F)cc1[C@H](Cn1c(=O)n(C(C)(C)C(N)=O)c(=O)c2c(C)c(-n3cccn3)sc21)OC1CCOCC1 2

Given the compound COc1ccc(F)cc1[C@H](Cn1c(=O)n(C(C)(C)C(=O)NC(C)C)c(=O)c2c(C)c(-n3cccn3)sc21)OC1CCOCC1 , what is its reported IC90? 2

* * *

Reported MIC values for a set of molecules
System: C. parapsilosis ATCC 22019
test-name: Anti-Fungal (Candida) Activity Assay, broth microtiter MIC
Type: cell-based
conditions-used: Lodderomyces parapsilosis, ATCC22019; 3 replicates, MIC recorded at 48 h; read-out: MIC C. parapsilosis ATCC 22019

Reported MIC for C. parapsilosis ATCC 22019, given Cc1c(-n2cccn2)sc2c1c(=O)n(C(C)(C)C(=O)NC(C)C)c(=O)n2C[C@H](OC1CCOCC1)c1cc(F)ccc1OCC1COC1 ? > 4.1 µg/mL

Param readout = MIC; param system = C. parapsilosis ATCC 22019; param query = COc1ccc(F)cc1[C@H](Cn1c(=O)n(C(C)(C)C(=O)N2CCCC2)c(=O)c2c(C)c(-n3cccn3)sc21)OC[C@@H](C)O ; response: value 2.1 to 4 µg/mL

* * *

# IC50 per entry for fungal (fACC2) ACC2

Please tell me: IC50 of CCO[C@@H](Cn1c(=O)n(C(C)(C)C(=O)N2CCCC2)c(=O)c2c(C)c(-n3cccn3)sc21)c1cc(F)ccc1OC , system fungal (fACC2) ACC2? 0.6 to 3 nM

Query IC50 on fungal (fACC2) ACC2 for COc1ccc(F)cc1[C@H](Cn1c(=O)n(C(C)C(=O)O)c(=O)c2c(C)c(-n3cccn3)sc21)OCCO (stereo partly drawn) 0.6 to 3 nM

Param readout = IC50; param system = fungal (fACC2) ACC2; param query = COc1ccc(F)cc1[C@H](Cn1c(=O)n(C(C)(C)C(=O)N2CC=CC2)c(=O)c2c(C)c(-n3cccn3)sc21)OC1CCOCC1 ; response: value 0.6 to 3 nM

What reported IC50 corresponds to COc1ccccc1[C@H](Cn1c(=O)n(C(C)(C)C(N)=O)c(=O)c2c(C)c(-n3cccn3)sc21)OCCC#N on fungal (fACC2) ACC2? 3 to 10 nM

# query: IC50 | item COCCOc1ccc(F)cc1[C@H](Cn1c(=O)n(C(C)(C)C(=O)NC(C)C)c(=O)c2c(C)c(-n3cccn3)sc21)OC1CCOCC1 | system: fungal (fACC2) ACC2 0.6 to 3 nM

Hello, I am looking for reported IC50 with fungal (fACC2) ACC2 for COc1ccc(F)cc1[C@H](Cn1c(=O)n(C(C)C(=O)N2CCCC2)c(=O)c2c(C)c(-n3cccn3)sc21)OCC(C)(C)O (stereo partly drawn) . Could you help? 0.6 to 3 nM
